# experiment: BIC plasma pharmacokinetics, Phase 1 open-label single-dose DDI study GS-US-380-3909 (B/F/TAF 50/200/25 mg with antacid or mineral supplements)
# Format: in vivo, human
# run_conditions: both sexes, human, plasma, oral, BIC plasma Cmax, mean (%CV), Cohort 1 fasted; B/F/TAF + aluminum/magnesium-containing antacid simultaneous; N = 14
attribute_measured: Cmax (ng/mL)

>>> data_value("O=C(NCc1c(F)cc(F)cc1F)c1cn2c(c(O)c1=O)C(=O)N1[C@H]3CC[C@H](C3)O[C@@H]1C2")
1200

====

# experiment: BIC plasma pharmacokinetics, Phase 1 open-label single-dose DDI study GS-US-380-3909 (B/F/TAF 50/200/25 mg with antacid or mineral supplements)
# Format: in vivo, human
# run_conditions: both sexes, human, plasma, oral, Cohort 2 fasted; BIC alone (N = 14); read-out: C24, reference GLSM
attribute_measured: concentration at 24 h

>>> data_value("O=C(NCc1c(F)cc(F)cc1F)c1cn2c(c(O)c1=O)C(=O)N1[C@H]3CC[C@H](C3)O[C@@H]1C2")
"1930 ng/mL"
